Values compiled from patent US12528819B2.

- experimentalTarget: α5β2γ2 subtype GABAAR (Homo sapiens, UniProt P18507+P31644)
- Construct: expressed in transfected cells
- Sequence (P31644 32-462): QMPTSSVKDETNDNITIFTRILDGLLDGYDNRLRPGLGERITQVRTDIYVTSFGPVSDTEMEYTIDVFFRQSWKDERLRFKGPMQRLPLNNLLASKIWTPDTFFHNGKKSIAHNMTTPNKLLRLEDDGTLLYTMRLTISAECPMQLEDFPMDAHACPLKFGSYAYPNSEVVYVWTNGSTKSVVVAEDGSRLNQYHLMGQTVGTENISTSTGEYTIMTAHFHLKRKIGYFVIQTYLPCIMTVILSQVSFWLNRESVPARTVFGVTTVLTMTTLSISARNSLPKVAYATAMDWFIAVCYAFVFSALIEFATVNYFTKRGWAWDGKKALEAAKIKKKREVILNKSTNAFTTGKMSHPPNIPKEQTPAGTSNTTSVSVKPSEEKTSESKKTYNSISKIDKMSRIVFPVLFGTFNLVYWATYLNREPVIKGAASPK
- Sequence (P47870 25-512 partner limits assumed): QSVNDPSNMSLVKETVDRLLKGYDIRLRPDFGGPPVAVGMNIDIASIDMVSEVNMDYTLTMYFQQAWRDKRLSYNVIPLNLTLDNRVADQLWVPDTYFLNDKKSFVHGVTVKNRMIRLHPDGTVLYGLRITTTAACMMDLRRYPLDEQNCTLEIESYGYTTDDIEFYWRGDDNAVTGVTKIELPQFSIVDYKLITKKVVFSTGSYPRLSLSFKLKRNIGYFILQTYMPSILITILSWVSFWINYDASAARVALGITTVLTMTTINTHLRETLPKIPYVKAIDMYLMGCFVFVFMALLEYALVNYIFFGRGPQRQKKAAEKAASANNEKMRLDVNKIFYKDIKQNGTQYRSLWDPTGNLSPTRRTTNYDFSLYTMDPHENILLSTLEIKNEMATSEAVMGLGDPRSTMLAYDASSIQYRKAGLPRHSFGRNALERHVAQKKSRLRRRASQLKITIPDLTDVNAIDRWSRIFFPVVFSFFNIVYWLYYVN
- Sequence (P18507 40-467 limits assumed): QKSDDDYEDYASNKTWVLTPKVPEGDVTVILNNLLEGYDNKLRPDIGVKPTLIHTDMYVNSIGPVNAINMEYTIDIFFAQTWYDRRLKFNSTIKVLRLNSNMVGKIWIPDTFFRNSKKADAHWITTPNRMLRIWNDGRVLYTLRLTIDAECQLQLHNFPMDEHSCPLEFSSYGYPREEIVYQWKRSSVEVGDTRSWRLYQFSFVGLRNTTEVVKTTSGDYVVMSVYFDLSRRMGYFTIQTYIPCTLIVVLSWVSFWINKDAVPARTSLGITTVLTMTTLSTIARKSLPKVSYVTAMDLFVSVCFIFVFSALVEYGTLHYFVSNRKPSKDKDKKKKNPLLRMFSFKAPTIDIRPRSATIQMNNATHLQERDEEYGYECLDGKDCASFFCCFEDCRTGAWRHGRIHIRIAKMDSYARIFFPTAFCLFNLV
- protocolDescription: Positive allosteric modulator activity: potentiation of EC20 GABA current in oocytes
- Type: cell-based
- reportedConditions: read-out: GABA α5 Functional Data (potentiation), @ 100 nM, reported as ranges
measuredAttribute: activation at 0.1 µM

The examples below pair each entry with its known result.
Fc1ccccc1[C@H]1COC(c2ncn3c2Cc2cnnn2-c2cc(Cl)ccc2-3)=N1; 20 to 50%
Clc1ccc2c(c1)-c1nnc(COCc3ccccc3)n1Cc1c(-c3ncco3)ncn1-2; > 50%
COc1ccc2c(c1)-c1nnc(COCc3cccc(F)c3)n1Cc1c(-c3noc(C(C)C)n3)ncn1-2; 20 to 50%
C#Cc1ncn2c1Cc1cnnn1-c1cc(Cl)ccc1-2; > 50%
CCOC(=O)c1ncn2c1Cn1c(COCC(F)(F)F)nnc1-c1cc(Cl)ccc1-2; 5 to 20%

Problem: What value of measured activation at 0.1 µM is listed for "C#Cc1ncn2c1Cn1c(COC)nnc1-c1cc(OC)ccc1-2" ?
Result: 5 to 20%

Problem: // repeat for "COCc1nnc2n1Cc1c(C3=N[C@@H](c4ccccc4)CO3)ncn1-c1ccc(OC)cc1-2" and report
Result: 20 to 50%

Problem: Now consider "CCOC(=O)c1ncn2c1Cc1c(C)nnn1-c1cc(F)ccc1-2" and answer again.
Result: 20 to 50%
